molecular target: pre-existing anti-drug antibodies (ADA) present in human sera; assay: pre-existing ADA ELISA, scFv coated, human sera unspiked vs spiked
OBSERVATION_TYPE: Mean No of serum samples >30% inhibition (30% CCP) with SCP (serum samples)
Form: value (number only, do not type unit).

{"BINDER": "PRO3313 (scFv 37-20-B03-sc09.1_(T101S, T146R)) (scFv, PRO2230 variant; VH substitutions, AHo numbering; also called PRO2230 T101S-T146R) scFv: DIQMTQSPASLSASVGDRVTITCQASQSIGTYLAWYQQKPGKPPKLLIYRAFILASGVPSRFSGSGSGTDFTLTISSLQPEDFATYYCQSNFYSDSTTIGPNAFGTGTKVTVLGGGGGSGGGGSGGGGSGGGGSEVQLVESGGGLVQPGGSLRLSCAASGFSFNSDYWIYWVRQAPGKGLEWIASIYGGSSGNTQYASWAQGRFTISRDNSKNTVYLQMNSLRAEDSAVYFCARGYVDYGGATDLWGQGTLVRVSS", "REPORTED_MEASUREMENT": 1}
{"BINDER": "PRO2941 (scFv 54-21-H03-sc01_(T146K)) (scFv, PRO1922 variant; VH substitution, AHo numbering; also called PRO1922 T146K) scFv: DIQMTQSPSSLSASVGDRVTITCQASESIYSSLAWYQQKPGKAPKLLIYLASTLASGVPSRFSGSGSGTDFTLTISSLQPEDFATYYCQSTDYTTSTHRNSFGTGTKVTVLGGGGGSGGGGSGGGGSGGGGSEVQLVESGGGLVQPGGSLRLSCAASGFSFSTTYYMCWVRQAPGKGLEWIGCTNTASSVRTYYATWAKGRFTISRDNSKNTVYLQMNSLRAEDTAVYYCARDMGFADYALNLWGQGTLVKVSS", "REPORTED_MEASUREMENT": 0}
{"BINDER": "PRO2935 (scFv 37-20-B03-sc09.1_(L144A, S148N)) (scFv, PRO2230 variant; VH substitutions, AHo numbering; also called PRO2230 L144A-S148N) scFv: DIQMTQSPASLSASVGDRVTITCQASQSIGTYLAWYQQKPGKPPKLLIYRAFILASGVPSRFSGSGSGTDFTLTISSLQPEDFATYYCQSNFYSDSTTIGPNAFGTGTKVTVLGGGGGSGGGGSGGGGSGGGGSEVQLVESGGGLVQPGGSLRLSCAASGFSFNSDYWIYWVRQAPGKGLEWIASIYGGSSGNTQYASWAQGRFTISRDNSKNTVYLQMNSLRAEDTAVYFCARGYVDYGGATDLWGQGTAVTVNS", "REPORTED_MEASUREMENT": 8}

Query: Can you share its Mean No of serum samples >30% inhibition (30% CCP) with SCP (serum samples)? I mean this binder: PRO3314 (scFv 37-20-B03-sc09.1_(T101Q, T146Q)) (scFv, PRO2230 variant; VH substitutions, AHo numbering; also called PRO2230 T101Q-T146Q) scFv: DIQMTQSPASLSASVGDRVTITCQASQSIGTYLAWYQQKPGKPPKLLIYRAFILASGVPSRFSGSGSGTDFTLTISSLQPEDFATYYCQSNFYSDSTTIGPNAFGTGTKVTVLGGGGGSGGGGSGGGGSGGGGSEVQLVESGGGLVQPGGSLRLSCAASGFSFNSDYWIYWVRQAPGKGLEWIASIYGGSSGNTQYASWAQGRFTISRDNSKNTVYLQMNSLRAEDQAVYFCARGYVDYGGATDLWGQGTLVQVSS
Result: 1

Query: Looking for the measured Mean No of serum samples >30% inhibition (30% CCP) with SCP (serum samples) of PRO2903 (scFv 37-20-B03-sc09.1_(L12R, V103T, L144Q)) (scFv, VH substitutions, AHo numbering; also called PRO2230-L12R-V103T-L144Q) scFv: DIQMTQSPASLSASVGDRVTITCQASQSIGTYLAWYQQKPGKPPKLLIYRAFILASGVPSRFSGSGSGTDFTLTISSLQPEDFATYYCQSNFYSDSTTIGPNAFGTGTKVTVLGGGGGSGGGGSGGGGSGGGGSEVQLVESGGGRVQPGGSLRLSCAASGFSFNSDYWIYWVRQAPGKGLEWIASIYGGSSGNTQYASWAQGRFTISRDNSKNTVYLQMNSLRAEDTATYFCARGYVDYGGATDLWGQGTQVTVSS , can you help?
Result: 5

Query: Would you kindly share the measured Mean No of serum samples >30% inhibition (30% CCP) with SCP (serum samples) for PRO3346 (scFv 54-21-H03-sc01_(T101S T146K)) (scFv, PRO1922 variant; VH substitutions, AHo numbering; also called PRO1922 T101S-T146K) scFv: DIQMTQSPSSLSASVGDRVTITCQASESIYSSLAWYQQKPGKAPKLLIYLASTLASGVPSRFSGSGSGTDFTLTISSLQPEDFATYYCQSTDYTTSTHRNSFGTGTKVTVLGGGGGSGGGGSGGGGSGGGGSEVQLVESGGGLVQPGGSLRLSCAASGFSFSTTYYMCWVRQAPGKGLEWIGCTNTASSVRTYYATWAKGRFTISRDNSKNTVYLQMNSLRAEDSAVYYCARDMGFADYALNLWGQGTLVKVSS ?
Result: 0
